target: NDM-1 (Klebsiella pneumoniae, UniProt C7C422); construct: made in house; host or cells: E. coli (DH5 and BL21(DE3) named); experiment: Steady-state kinetics of antibiotic hydrolysis with inhibitor; type: biochemical; settings: meropenem, inhibitor concentration as per IC50
Sequence (C7C422 29-270, looked up, species assumed): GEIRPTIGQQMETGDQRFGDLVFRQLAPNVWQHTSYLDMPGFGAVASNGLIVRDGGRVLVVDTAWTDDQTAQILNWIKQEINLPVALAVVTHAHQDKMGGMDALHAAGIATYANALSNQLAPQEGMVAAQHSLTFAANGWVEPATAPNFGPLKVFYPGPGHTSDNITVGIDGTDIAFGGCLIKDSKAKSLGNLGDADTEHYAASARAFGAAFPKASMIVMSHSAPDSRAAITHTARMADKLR
measurement_name: Km or Ki (μΜ)

compound	unit_info	recorded_measurement
O=C(O)c1ccccc1C(=O)N1CCN(c2nc(-c3ccccc3)ns2)CC1	μΜ	756.8
NC(=O)[C@@H]1CC[C@@H]2CN1C(=O)N2OS(=O)(=O)O [Avibactam, reference compound]	μΜ	440.9
O=C(c1ccccc1)C1CCN(C(=O)CN2C(=O)c3ccccc3C2=O)CC1	μΜ	986.4
